Hey, just so you know, these numbers are from patent US20060004037A1.

ASSAY DETAILS: Solubility in various solvents/solubilizing mixtures
Assay type: physicochemical
TEST CONTEXT: Labrafac Lipophile WL 1349, oil or lipid
ATTRIBUTE MEASURED: solubility

Task item: Query (compound): `Cc1onc2c1c(=O)n([C@H]1CCC[C@@H](CNC(=O)c3ccc(F)nc3)C1)c1cccc(Cl)c21` ; field requested: solubility
Reply: < 2000 µg/mL

----------
ASSAY DETAILS: Solubility in various solvents/solubilizing mixtures
Assay type: physicochemical
TEST CONTEXT: Labrafac Hydro WL 219, oil or lipid
ATTRIBUTE MEASURED: solubility

Task item: Quick one: solubility of `Cc1onc2c1c(=O)n([C@H]1CCC[C@@H](CNC(=O)c3ccc(F)nc3)C1)c1cccc(Cl)c21` ?
Reply: > 2000 µg/mL
